Answer each item with its documented hERG current change (%, negative = inhibition) at 10uM.
# assayed_target: human ether-à-go-go-related gene (hERG) potassium channel (human);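 further: peak tail current of the secondary pulse compared with the same well before compound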
# Sequence (Q12809 whole entry, looked up): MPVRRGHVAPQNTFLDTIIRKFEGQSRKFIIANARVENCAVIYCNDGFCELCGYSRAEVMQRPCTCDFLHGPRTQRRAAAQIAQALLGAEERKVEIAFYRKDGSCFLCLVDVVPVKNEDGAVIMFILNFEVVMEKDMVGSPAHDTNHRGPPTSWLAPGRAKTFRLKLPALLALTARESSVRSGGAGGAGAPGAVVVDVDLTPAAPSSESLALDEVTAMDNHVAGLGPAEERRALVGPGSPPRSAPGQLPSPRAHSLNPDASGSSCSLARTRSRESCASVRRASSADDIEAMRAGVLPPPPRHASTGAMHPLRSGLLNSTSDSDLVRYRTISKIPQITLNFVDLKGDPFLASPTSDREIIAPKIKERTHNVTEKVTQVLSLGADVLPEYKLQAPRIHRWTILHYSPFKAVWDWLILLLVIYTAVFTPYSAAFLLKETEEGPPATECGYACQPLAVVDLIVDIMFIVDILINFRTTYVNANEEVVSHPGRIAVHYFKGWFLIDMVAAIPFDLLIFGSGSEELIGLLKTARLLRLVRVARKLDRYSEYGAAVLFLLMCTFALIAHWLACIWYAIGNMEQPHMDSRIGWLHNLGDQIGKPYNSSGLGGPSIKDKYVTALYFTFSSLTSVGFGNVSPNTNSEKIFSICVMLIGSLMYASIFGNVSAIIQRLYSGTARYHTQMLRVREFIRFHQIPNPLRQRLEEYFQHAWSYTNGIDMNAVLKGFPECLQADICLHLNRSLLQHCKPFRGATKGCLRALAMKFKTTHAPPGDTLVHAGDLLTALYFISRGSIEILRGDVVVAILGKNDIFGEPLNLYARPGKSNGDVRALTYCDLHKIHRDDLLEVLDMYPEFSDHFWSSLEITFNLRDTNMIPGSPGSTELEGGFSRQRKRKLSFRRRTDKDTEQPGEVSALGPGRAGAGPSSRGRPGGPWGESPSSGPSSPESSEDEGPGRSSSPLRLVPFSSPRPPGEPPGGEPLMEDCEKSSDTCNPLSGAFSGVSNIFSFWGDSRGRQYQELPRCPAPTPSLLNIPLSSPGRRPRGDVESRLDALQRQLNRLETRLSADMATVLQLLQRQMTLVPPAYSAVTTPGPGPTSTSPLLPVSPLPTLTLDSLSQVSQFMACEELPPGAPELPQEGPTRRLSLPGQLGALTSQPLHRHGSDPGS
# assay_summary: primary screen, population patch clamp on CHO cells stably expressing hERG; higher = less effect of the substance
Hit rate of the full screen: of about 310,000 compounds, about 14,000 (4.5%) showed an effect of 50% or more. The effect is printed as a negative number. The sample as a whole holds a higher share of strong results than the screen did.

Q: Find hERG current change (%, negative = inhibition) at 10uM (human ether-à-go-go-related gene (hERG) potassium channel (human)) for the entry CC(=O)C1=C(C)NC(SCC(N)=O)=C(C#N)C1C (centres unmarked)
Result: 8.65%

Q: Find hERG current change (%, negative = inhibition) at 10uM (human ether-à-go-go-related gene (hERG) potassium channel (human)) for the entry "COc1cc2nc(CN3CCN(S(=O)(=O)c4ccc(Cl)cc4)CC3)[nH]c(=O)c2cc1OC"
Result: -58.2%

Q: Find hERG current change (%, negative = inhibition) at 10uM (human ether-à-go-go-related gene (hERG) potassium channel (human)) for the entry CCC(C)NC(=O)c1ccccc1NC(=O)Nc1ccccc1 (centres unmarked)
Result: 3.24%

Q: Find hERG current change (%, negative = inhibition) at 10uM (human ether-à-go-go-related gene (hERG) potassium channel (human)) for the entry Clc1ccc(C(c2ccccc2)N2CCN(c3ccccn3)CC2)cc1 (centres unmarked)
Result: -5.64%

Q: Find hERG current change (%, negative = inhibition) at 10uM (human ether-à-go-go-related gene (hERG) potassium channel (human)) for the entry "Cl.O=C(/C=C/c1ccc(Br)o1)NCCCN1CCOCC1"
Result: 7.91%

Q: Find hERG current change (%, negative = inhibition) at 10uM (human ether-à-go-go-related gene (hERG) potassium channel (human)) for the entry "O=C1CN(Cc2nc3cc(Cl)ccc3c(=O)[nH]2)CCN1"
Result: 25.4%

Q: Find hERG current change (%, negative = inhibition) at 10uM (human ether-à-go-go-related gene (hERG) potassium channel (human)) for the entry "O=C(/C=C/c1ccc(Cl)cc1)NCCCN1CCOCC1"
Result: -71%

Q: Find hERG current change (%, negative = inhibition) at 10uM (human ether-à-go-go-related gene (hERG) potassium channel (human)) for the entry O=C(Nc1ccc(Cl)cc1Cl)C1CCC(=O)N1Cc1ccccc1Cl (centres unmarked)
Result: -2.67%

Q: Find hERG current change (%, negative = inhibition) at 10uM (human ether-à-go-go-related gene (hERG) potassium channel (human)) for the entry Clc1ccc(C(c2ccccc2)N2CCNCC2)cc1 (centres unmarked)
Result: -22.7%

Q: Find hERG current change (%, negative = inhibition) at 10uM (human ether-à-go-go-related gene (hERG) potassium channel (human)) for the entry CN1CCN(C(c2cccc(Cl)c2)c2ccccc2Cl)CC1.O=C(O)/C=C\C(=O)O (centres unmarked)
Result: -73.1%

Q: Find hERG current change (%, negative = inhibition) at 10uM (human ether-à-go-go-related gene (hERG) potassium channel (human)) for the entry "O=c1[nH]c(CN2CCN(S(=O)(=O)/C=C/c3ccccc3)CC2)nc2ccccc12"
Result: -66.5%

Q: Find hERG current change (%, negative = inhibition) at 10uM (human ether-à-go-go-related gene (hERG) potassium channel (human)) for the entry "O=C(/C=C/c1ccco1)NCCCN1CCN(CCCNC(=O)/C=C/c2ccco2)CC1"
Result: -43.5%

Q: Find hERG current change (%, negative = inhibition) at 10uM (human ether-à-go-go-related gene (hERG) potassium channel (human)) for the entry "O=c1[nH]c(CN2CCN(S(=O)(=O)c3ccc(Cl)cc3)CC2)nc2cc(Cl)ccc12"
Result: -11.8%

Q: Find hERG current change (%, negative = inhibition) at 10uM (human ether-à-go-go-related gene (hERG) potassium channel (human)) for the entry "CN1CCN(C(c2ccccc2)c2ccccc2)CC1.Cl"
Result: -12.1%

Q: Find hERG current change (%, negative = inhibition) at 10uM (human ether-à-go-go-related gene (hERG) potassium channel (human)) for the entry O=S(=O)(NCC(c1cccnc1)N1CCN(c2ccccc2F)CC1)c1cccs1 (centres unmarked)
Result: -60.5%

Q: Find hERG current change (%, negative = inhibition) at 10uM (human ether-à-go-go-related gene (hERG) potassium channel (human)) for the entry "COc1cc2nc(CN3CCN(S(=O)(=O)c4c(F)cccc4F)CC3)[nH]c(=O)c2cc1OC"
Result: -33.4%

Q: Find hERG current change (%, negative = inhibition) at 10uM (human ether-à-go-go-related gene (hERG) potassium channel (human)) for the entry "CCN(CC)C(=O)c1ccccc1NC(=O)c1ccccc1SC"
Result: -39.6%

Q: Find hERG current change (%, negative = inhibition) at 10uM (human ether-à-go-go-related gene (hERG) potassium channel (human)) for the entry "O=c1[nH]c(CN2CCN(S(=O)(=O)c3ccc4ccccc4c3)CC2)nc2ccccc12"
Result: 2.03%

Q: Find hERG current change (%, negative = inhibition) at 10uM (human ether-à-go-go-related gene (hERG) potassium channel (human)) for the entry "O=C(/C=C/c1ccc(F)cc1)NCCCN1CCN(CCCNC(=O)/C=C/c2ccc(F)cc2)CC1"
Result: -73.2%

Q: Find hERG current change (%, negative = inhibition) at 10uM (human ether-à-go-go-related gene (hERG) potassium channel (human)) for the entry CN1CCN(C(c2ccccc2)c2ccc(Cl)cc2)CC1.Cl (centres unmarked)
Result: -60.9%
